- Assayed target: Epidermal growth factor receptor (Homo sapiens)
- Assay: EGFR binders on small-molecule microarrays, primary screen, biochemical, small-molecule microarray, 635 nm fluorescence (AID 1104);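 note: score merges 667 nm emission intensity with spot signal to noise over triplicate slides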
- Study conditions: EGFR binding, higher = more signal

Molecule: COCCOC(=O)N1C(=O)[C@@]2(c3cc(C#Cc4ccc(OC)cc4)ccc31)[C@H](c1ccc(O)cc1)N1[C@H](c3ccccc3)[C@H](c3ccccc3)OC(=O)[C@H]1[C@@H]2C(=O)N1CCc2cc(OC)c(OC)cc2C1
Assayed target: Epidermal growth factor receptor (Homo sapiens)
composite z-score: 0.386
--
Molecule: COc1cc(NN2C(C(O)c3ccco3)C=CC3C(=O)N(c4ccccc4)C(=O)C32)cc(OC)c1OC (stereo not drawn)
Assayed target: Epidermal growth factor receptor (Homo sapiens)
composite z-score: -0.395
--
Molecule: COC(=O)[C@@]1(Cc2ccc(F)cc2)[C@H]2c3cc(C(=O)N(C)C)n(Cc4ccccc4)c3C[C@H]2CN1C(=O)c1ccccc1
Assayed target: Epidermal growth factor receptor (Homo sapiens)
composite z-score: -0.22

Values were extracted from PubChem BioAssay.
